Origin of measurements: patent US12338220B2

TGT: CMV-polymerase (Human cytomegalovirus (strain AD169) (HHV-5) (Human herpesvirus 5), UniProt P08546)
ASSAY_REMARKS: biochemical
EXPERIMENTAL_CONTEXT: read-out: CMV-polymerase Biochemical IC50
pIC50: −log10 of the molar value.
# pIC50 per entry

COMPOUND: Cn1nc(C(=O)NCc2ccc(Cl)cc2)c2c1C(=O)N(CC1(S(=O)(=O)NCCO)CC1)CC2 [Example 143]
pIC50: 7.72
//
COMPOUND: CN(CCO)S(=O)(=O)C1(CN2CCc3c(C(=O)NCc4ccc(Cl)cc4)nn(C)c3C2=O)CC1 [Example 144]
pIC50: 8.40
//
COMPOUND: Cn1nc(C(=O)NCc2ccc(C#N)cc2)c2c1C(=O)N(CC1(S(=O)(=O)C(C)(CN)CO)CC1)CC2 (centres unmarked) [Example 183]
pIC50: 8.30
//
COMPOUND: CC(=O)OCC(C)(C)S(=O)(=O)C1(CN2CCc3c(C(=O)NCc4ccc(C#N)cc4)nn(C)c3C2=O)CC1 [Example 57]
pIC50: 9.00
//
COMPOUND: Cn1nc(C(=O)NCc2ccc(C#N)cn2)c2c1C(=O)N(CC1(S(=O)(=O)C3CC3)CC1)CC2 [Example 14]
pIC50: 7.02
//
COMPOUND: Cn1nc(C(=O)NCc2ccc(Cl)cc2)c2c1C(=O)N(CC1(S(=O)(=O)C3CC3)CC1)CC2 [Example 4]
pIC50: 8.70
//
COMPOUND: Cn1nc(C(=O)NCc2ccc(C#N)cc2)c2c1C(=O)N(CC1(S(=O)(=O)C(C)(C)CCO)CC1)CC2 [Example 113]
pIC50: 8.52
//
COMPOUND: CN1CCN(S(=O)(=O)C2(CN3CCc4c(C(=O)NCc5ccc(C#N)cc5)nn(C)c4C3=O)CC2)CC1 [Example 136]
pIC50: 7.74
//
COMPOUND: Cn1nc(C(=O)NCc2ccc(C#N)cc2)c2c1C(=O)N(CC1(S(=O)(=O)N3CCC(C)(O)C3)CC1)CC2 (single isomer, unassigned) [Example 130]
pIC50: 8.15
//
COMPOUND: COc1cc(CNC(=O)c2nn(C)c3c2CCN(CC2(S(=O)(=O)C4CC4)CC2)C3=O)ccc1C#N [Example 15]
pIC50: 7.96
//
COMPOUND: Cn1nc(C(=O)NCc2ccc(C#N)cc2)c2c1C(=O)N(CC1(S(=O)(=O)C(C)(C)CN3CCOCC3)CC1)CC2 [Example 61]
pIC50: 8.22
//
COMPOUND: Cn1nc(C(=O)NCc2ccc(C#N)cc2)c2c1C(=O)N(CC1(S(C)(=O)=O)CC1)CC2 [Example 21]
pIC50: 8.05
//
COMPOUND: Cn1nc(C(=O)NCc2ccc(C#N)cc2)c2c1C(=O)N(CC1(S(=O)(=O)C3CC3)CC1)CC2 [Example 3]
pIC50: 8.70
//
COMPOUND: Cn1nc(C(=O)NCc2ccc(C#N)cc2)c2c1C(=O)N(CC1(S(=O)(=O)N3CCC(N)CC3)CC1)CC2 [Example 138]
pIC50: 7.68

----------
TGT: HSV-polymerase (Human herpesvirus 1 (strain 17) (HHV-1) (Human herpes simplex virus 1), UniProt P04293)
ASSAY_REMARKS: biochemical
// values below are reported IC50
QUANTITY: IC50 (µM)

COMPOUND: Cn1nc(C(=O)NCc2ccc(C#N)cc2)c2c1C(=O)N(CC1(S(=O)(=O)C3(C(O)CO)CC3)CC1)CC2 (single isomer, unassigned) [Example 194]
NUMERIC_VALUE: 0.02
--
COMPOUND: CC(=O)OCC(C)(C)S(=O)(=O)C1(CN2CCc3c(C(=O)NCc4ccc(C#N)cc4)nn(C)c3C2=O)CC1
NUMERIC_VALUE: 0.035
--
COMPOUND: Cn1nc(C(=O)NCc2ccc(F)cc2)c2c1C(=O)N(CC1(S(=O)(=O)C(C)(C)COCCN)CC1)CC2
NUMERIC_VALUE: 0.054
--
COMPOUND: Cn1nc(C(=O)NCc2ccc(C#N)cc2)c2c1C(=O)N(CC1(S(=O)(=O)C(C)(C)COC(F)CN)CC1)CC2 (single isomer, unassigned) [Example 83]
NUMERIC_VALUE: 0.071
--
COMPOUND: Cn1nc(C(=O)NCc2ccc(C#N)cc2)c2c1C(=O)N(CC1(S(=O)(=O)C(C)(C)COCCN)CC1)CC2
NUMERIC_VALUE: 0.03
--
COMPOUND: CC(O)Cn1nc(C(=O)NCc2ccc(C#N)cc2)c2c1C(=O)N(CC1(S(=O)(=O)C3CC3)CC1)CC2 (single isomer, unassigned) [Example 226]
NUMERIC_VALUE: 0.101

----------
TGT: CMV-polymerase (Human cytomegalovirus (strain AD169) (HHV-5) (Human herpesvirus 5), UniProt P08546)
ASSAY_REMARKS: biochemical
EXPERIMENTAL_CONTEXT: CMV-polymerase Biochemical IC50

COMPOUND: Cn1nc(C(=O)NCc2ccc(Cl)nc2)c2c1C(=O)N(CC1(S(=O)(=O)C3CC3)CC1)CC2 [Example 7]
IC50 [nM]: 56

COMPOUND: Cn1nc(C(=O)NCc2ccc(Cl)cc2)c2c1C(=O)N(CC1(S(=O)(=O)C(C)(CO)CO)CC1)CC2 [Example 175]
IC50 [nM]: 3

COMPOUND: Cn1nc(-c2cn(Cc3ccc(C#N)cc3)nn2)c2c1C(=O)N(CC1(S(=O)(=O)C3CC3)CC1)CC2 [Example 35]
IC50 [nM]: 3

COMPOUND: Cn1nc(C(=O)NCc2ccc(Cl)cc2)c2c1C(=O)N(CC1(S(=O)(=O)C(C)(C)CO)CC1)CC2 [Example 50]
IC50 [nM]: 1

----------
TGT: CMV-polymerase (Human cytomegalovirus (strain AD169) (HHV-5) (Human herpesvirus 5))
ASSAY_REMARKS: biochemical
EXPERIMENTAL_CONTEXT: read-out: CMV-polymerase Biochemical IC50
Where a name gives a salt, the structure may show the parent alone.
QUANTITY: IC50 (nM)

COMPOUND: Cn1nc(C(=O)NCc2ccc(C#N)cc2)c2c1C(=O)N(CC1(S(=O)(=O)C(F)F)CC1)CC2
NUMERIC_VALUE: 14
//
COMPOUND: Cn1nc(C(=O)NCc2ccc(Cl)cc2)c2c1C(=O)N(CC1(S(=O)(=O)C(C)(C)[C@H](N)CO)CC1)CC2 [Example 214, hydrochloride]
NUMERIC_VALUE: 3
//
COMPOUND: Cn1ccc(NS(=O)(=O)C2(CN3CCc4c(C(=O)NCc5ccc(C#N)cc5)nn(C)c4C3=O)CC2)n1
NUMERIC_VALUE: 3
//
COMPOUND: Cn1nc(C(=O)NCc2ccc(C#N)cc2)c2c1C(=O)N(CC1(S(=O)(=O)N3CCC(C)(O)C3)CC1)CC2 (single isomer, unassigned) [Example 131]
NUMERIC_VALUE: 16
//
COMPOUND: C[C@@H](NC(=O)c1nn(C)c2c1CCN(CC1(S(=O)(=O)C3CC3)CC1)C2=O)c1ccc(C#N)cc1
NUMERIC_VALUE: 16900
//
COMPOUND: Cn1nc(C(=O)NCc2ccc(C#N)cc2)c2ccn(CC3(S(C)(=O)=O)CC3)c(=O)c21
NUMERIC_VALUE: 27
//
COMPOUND: Cn1nc(C(=O)NCc2ccc(C#N)cc2F)c2c1C(=O)N(CC1(S(=O)(=O)C3CC3)CC1)CC2
NUMERIC_VALUE: 6
//
COMPOUND: Cn1nc(C(=O)NCc2ccc(Cl)cc2)c2c1C(=O)N(CC1(S(=O)(=O)Nc3ccccn3)CC1)CC2
NUMERIC_VALUE: 3
//
COMPOUND: CC(C)(CO)S(=O)(=O)C1(CN2CCc3c(C(=O)NCc4ccc(C#N)cc4)nn(CCO)c3C2=O)CC1
NUMERIC_VALUE: 1
//
COMPOUND: Cn1nc(-c2nnnn2Cc2ccc(C#N)cc2)c2c1C(=O)N(CC1(S(=O)(=O)C3CC3)CC1)CC2
NUMERIC_VALUE: 940
//
COMPOUND: Cn1nc(C(=O)NCc2ccc(Cl)nc2)c2c1C(=O)N(CC1(S(=O)(=O)C(C)(C)CO)CC1)CC2
NUMERIC_VALUE: 6
//
COMPOUND: Cn1nc(C(=O)NCc2ccc(C#N)cc2)c2c1C(=O)N(CC1(S(=O)(=O)N3C[C@H](N)[C@@H](O)C3)CC1)CC2
NUMERIC_VALUE: 11
//
COMPOUND: COc1cccnc1NS(=O)(=O)C1(CN2CCc3c(C(=O)NCc4ccc(C#N)cc4)nn(C)c3C2=O)CC1
NUMERIC_VALUE: 13
//
COMPOUND: Cn1nc(C(=O)NCc2ccc(Cl)cc2)c2c1C(=O)N(CC1(S(=O)(=O)C3(C(O)CN)CC3)CC1)CC2 (stereo not shown)
NUMERIC_VALUE: 1
//
COMPOUND: N#Cc1ccc(CNC(=O)c2nn(CCCO)c3c2CCN(CC2(S(=O)(=O)C4CC4)CC2)C3=O)cc1
NUMERIC_VALUE: 4
//
COMPOUND: COC1CN(CC(C)(C)S(=O)(=O)C2(CN3CCc4c(C(=O)NCc5ccc(C#N)cc5)nn(C)c4C3=O)CC2)C1
NUMERIC_VALUE: 2
//
COMPOUND: N#Cc1ccc(CNC(=O)c2nn(CCO)c3c2CCN(CC2(S(=O)(=O)C4CC4)CC2)C3=O)cc1
NUMERIC_VALUE: 2
//
COMPOUND: Cn1nc(C(=O)NCc2ccc(C#N)cc2)c2c1C(=O)N(CC1(S(=O)(=O)NC3CCNCC3)CC1)CC2
NUMERIC_VALUE: 44
//
COMPOUND: CCS(=O)(=O)C1(CN2CCc3c(C(=O)NCc4ccc(C#N)cc4)nn(C)c3C2=O)CC1
NUMERIC_VALUE: 6
//
COMPOUND: Cn1nc(C(=O)NCc2ccc(C#N)cc2)c2c1C(=O)N(CC1(S(=O)(=O)C3(C(O)CN)CC3)CC1)CC2 (stereo not shown)
NUMERIC_VALUE: 1
//
COMPOUND: Cn1nc(C(=O)NCc2ccc(C#N)cc2)c2c1C(=O)N(CC1(S(=O)(=O)C(C)(C)CN3CC4CC3CO4)CC1)CC2 (stereo not shown)
NUMERIC_VALUE: 4
//
COMPOUND: Cn1nc(C(=O)NCc2ccc(F)cc2)c2c1C(=O)N(CC1(S(=O)(=O)C(C)(C)COCCN)CC1)CC2
NUMERIC_VALUE: 9
//
COMPOUND: Cn1nc(C(=O)NCc2ccc(C#N)cc2)c2c1C(=O)N(CC1(S(=O)(=O)N3CCNCC3)CC1)CC2
NUMERIC_VALUE: 20
//
COMPOUND: CN(CCO)S(=O)(=O)C1(CN2CCc3c(C(=O)NCc4ccc(C#N)cc4)nn(C)c3C2=O)CC1
NUMERIC_VALUE: 3
//
COMPOUND: CN(C)/C=N/S(=O)(=O)C1(CN2CCc3c(C(=O)NCc4ccc(Cl)cc4)nn(C)c3C2=O)CC1
NUMERIC_VALUE: 7
//
COMPOUND: Cn1nc(C(=O)NCc2ccc(Cl)cc2)c2c1C(=O)N(CC1(S(=O)(=O)C(C)(C)C(N)=O)CC1)CC2
NUMERIC_VALUE: 3
//
COMPOUND: Cc1cc(C#N)ccc1CNC(=O)c1nn(C)c2c1CCN(CC1(S(=O)(=O)C3CC3)CC1)C2=O
NUMERIC_VALUE: 2
//
COMPOUND: Cn1nc(C(=O)NCc2ccc(C#N)cc2)c2c1C(=O)N(CC1(S(=O)(=O)NC3CC3)CC1)CC2
NUMERIC_VALUE: 16
